Would you kindly list kon for each of these binders?
Molecular target: Human SARS-CoV-2_Wuhan S (SmT1) (SARS-CoV-2 (Wuhan), UniProt P0DTC2 14-1208)
Test: SPR, VHH over immobilised S
Reply numerically in M⁻¹ s⁻¹, unit not repeated.

Given the binder NRCoV2-10 VHH (VHH) VHH: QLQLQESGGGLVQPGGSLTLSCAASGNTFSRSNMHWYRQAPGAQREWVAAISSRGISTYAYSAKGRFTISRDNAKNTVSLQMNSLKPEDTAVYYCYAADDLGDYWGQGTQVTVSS , write its reported kon.
581000

Name the recorded kon of the item NRCoV2-MRed11 VHH (VHH) VHH: EVQLVESGGGLVQAGGSLRLSCAASGFTFSSYAMSWHRQAPGKGLEWVSAINSGGGSTSYADSVKGRFAISRDNAKNTLYLQMNSLKPEDTAVYYCATTISDGSSWSTKSYRGQGTQVTVSS in your answer.
45700

Values compiled from patent US20240270826A1.
